test: soluble on expression in E. coli; label from the status in PepcDB or PDB records
REPORTED METRIC: soluble on expression in E. coli

sequence_record=MSELRILRAVDYPRMPWKNGAGSTEEIARDGGDGLDGFGWRLSIADVGESGGFSGFAGYQRIISVLEGGGMRLRVDGAESAPLRARQAFAFSGDSEVHCTLLDGAIRDFNLIYAPRRHRARLQWLRVEGELDWHGTASTLLLFAQQDGVAISLQGQPRGQLAAHDCLCAEGLQGLQHWRLTAHEPAWVCAVELDSL reported_metric="soluble on expression in E. coli" result=soluble
sequence_record=GSHMVVELAYTDPDRAVDWLVRVFGFRLLLRQPAIGTIRHADLDTGGGIVMVRRTGEPYTVSCAGGHTCKQVIVWVSDVDEHFMRSTAAGADIVQPLQDKPWGLRQYLVRDLEGHLWEFTRHLRDVPPREWGAVAMT reported_metric="soluble on expression in E. coli" result=soluble
sequence_record=MENVEKRLIQLFTTYLNKAKHHMQGGSDMPNELVIGLHCRGEFESHRSWMQPRVQRGLEERMLFSSHKRAQIYKEAATSSLVAASSAPGEVREG reported_metric="soluble on expression in E. coli" result=soluble

* * *

assay: soluble on expression in E. coli; label from the status in PepcDB or PDB records
REPORTED METRIC: soluble on expression in E. coli

sequence_record=GMDGASEIELVFRPHPTLMEKDDSAQTRYIKTSGNATVDHLSKYLAVRLALEELRSKGESNQMNLDTASEKQYTIYIATASGQFTVLNGSFSLELVSEKYWKVNKPMELYYA result=soluble
sequence_record=LGKQIMFDAFRFKCPPQELNAAIIKQLRGLLDLGIGEIKARAEKQEALLEYPIFFNDWQDNKKIIRNLLDRISADQLPLEIYRYTTFEDGSVLEEQLTLKEANEALTALQRIELEQDMLSQLEAGHISSRDEYVPDDEDV result="not soluble"
sequence_record=MAHHHHHHMTSGPNNTTNIYDPIEVARANPYFKRNHMGQVTCTLCGIYCPEENNFLKHIAGKTHALQLERRQHKELRHLRLQEEERLNTEAEERARKEEALLALSGGQAGSGAAGGAGALSSAAAAAANARFGTPLYSFRTEHDEVAYRTKVWIEVMFTQAEEGTRPLHRWLSAREQHVEKPPDDYFVYLLFACEGYTTVALKFPAKANRSQPRDVLEEADGSTSEAYWCSWDPLQKVYTLFFALSR result=soluble
sequence_record=MRRILVLTKNILVEQTFQQQLQHLNYEVFCTNCCEETIEHELTFFNYFDAIVLSETLSQNDCLRLLGSLSSLEKPIYRRSQSMCNKREAEIWQERGIIRWLGLKDSLEDIREKIDTVDQSFAEVTAELLDDQVKKIRFTKNEQRFLKILYQHAHEGLDRDQICRLLWQKEPDASTKSQLSFVCKRVKQKFSDAGMNEEIITTYWGKGYQINEQILPYLEQTLFETAQ result="not soluble"
sequence_record=GVFTYESEFTSEIPPPRLFKAFVLDADNLVPKIAPQAIKHSEILEGDGGPGTIKKITFGEGSQYGYVKHKIDSIDKENYSYSYTLIEGDALGDTLEKISYETKLVASPSGGSIIKSTSHYHTKGNVEIKEEHVKAGKEKASNLFKLIETYLKGHPDAYN result=soluble
sequence_record=MSLVQSINTKVDLTIDATAYTGLTDYGKIMIGDKGFEFFNSRDVRKFVQIPWEEVDQVIVSVMLKGKWIPRYAIKTKRNGTYTFASKRPKEVLRKIRVYVDPANMVSSLSFFDVMKRSFRSIFSKKKNKNKEGHHHHHH result="not soluble"
sequence_record=MYREFYGLTEKPFSKTPDPRYLFLSRGHREALARLQYAVEERELALLTGDIGCGKTTISRALMDAVGNDGCFCFIVNPRLSAVEFLRTVARSLGIAEPAAAKDELLRQLTEAVYRLEGEKRCPVIIIDEAQLIPDQEVFDEIRLLTNFQLDDRNLMSVILMGQPELRQILSEPAHEALRQRIAMHYHLQPLSLEETLEYVDFRVEVAGGPQGLFSPDAIRRIYELSGGVPRKINILATNALLVGFGKDSAWIDASLVEELRDEASLYLEHHHHHH result="not soluble"
sequence_record=MAHHHHHHMFFRTCCRLMVRPTALQRCKSVNSVTLVGVVHDIQSGFVYEDAVTQFTLTTTSIDTTHPTQEVVVEKDHHTIRCFGELFSAEVKQKVKEGNVVCVNGRLRLSPQLEPSCNKHFYFPYIQVQPPHGQVAVIHGDRRNTPASVNPTAEEIPAESESGTTSKTS result="not soluble"
sequence_record=DIKMTQSPSSMSASLGESVTITCKASRDIKSYLSWYQQKPWKSPKTLIYYATSLADGVPSRFSGSGSGQDYSLTISSLESDDTATYYCLQHGESPFTFGSGTKLELKRADAAPTVSIFPPSSEQLTSGGASVVCFLNNFYPKDINVKWKIDGSERQNGVLNSWTDQDSKDSTYSMSSTLTLTKDEYERHNSYTCEATHKTSTSPIVKSFN result=soluble
sequence_record=MVIATIQAEDHSQQSGTQQETTTDTGGGKNVGYIDAGDWLSYAGTPVNIPSSGSYLIEYRVASQNGGGSLTFEEAGGAPVHGTIAIPATGGWQTWTTIQHTVNLSAGSHQFGIKANAGGWNLNWIRINKTH result=soluble
sequence_record=MRMLRRLRRATVAAAVWLATVCLVASCANADPLGSATGSVKSIVVGSGDFPESQVIAEIYAQVLQANGFDVGRRLGIGSRETYILALKDHSIDLVPEYIGNLLLYFQPDATVTMLDAVELELYKRLPGDLSILTPSPASDTDTVTVTAATAARWNLKTIADLAPHSADVKFAAPSAFQTRPSGLPGLRHKYSLDIAPGNFVTINDGGGAVTVRALVEGTATAANLFSTSAAIPQNHLVVLEDPEHNFLAGNIVPLVNSRKKSDHLKDVLDAVSAKLTTAGLAELNAAVSGNSGVDPDQAARKWVRDNGFDHPVRQ result=soluble
sequence_record=MGSDKIHHHHHHMTTATHPNDALFAGEKSFPVLAACEHFAGSEKLIGKAMDLQVEYGPVFDVTCDCEDGAAAGQEREHAEMVARMIASDRNVHGRAGARIHDPSHPAWRQDVDIIVNGAGGRLAYITVPKATNSGQVAEVIRYIGDVAKRAGLDKPVPVHVLIETHGALRDVFQIAELPNIEVLDFGLMDFVSGHHGAIPAAAMRSPGQFEHALLVRAKADMVAAALANGIVPAHNVCLNLKDAEVIASDACRARNEFGFLRMWSIYPAQIQPIVNAMRPDFTEVEDAAGILVAAQDADWGPIQYKGELHDRATYRYFWEVLQKAKVTGMAVPAEAERRFFVN result="not soluble"
sequence_record=MKGIARLVTSLSRIGGRKVVSGTSTVTSSSSSSLLLSRRSLFISATNLLNSRTKDSALPSLNSSLLAQKWNFLGGQRRTMFIQTQSTPNPSSLMFYPGKPVMEVGSADFPNVRSALGSPLAKSIYSIDGVVRVFFGSDFVTVTKSDDVSWDILKPEIFAAVMDFYSSGQPLFLDSQAAAAKDTAISEDDSETVAMIKELLETRIRPAVQDDGGDIEYCGFDPESGIVKLRMQGACSGCPSSSVTLKSGIENMLMHYVSEVKGVEQEFDGEDEEGTLSGEMRVE result="not soluble"

* * *

test: soluble on expression in E. coli; label from the status in PepcDB or PDB records
REPORTED METRIC: soluble on expression in E. coli

sequence_record=MAHHHHHHMKRTLSLGIEGSANKIGVGVVDQSGTVLSNVRETYITPPGSGFLPRETAIHHSQHVLQVVQRAMHDAAVTPADIDIISYTKGPGMGGPLSVGCTVAKTLSLLWGKPLVGVNHCVGHIEMGRVVTKSENPVVLYVSGGNTQVIAYADHRYRIFGETIDIAVGNCLDRVARLLNISNDPAPGYNIEQKAKKGKCYIRLPYTVKGMDMSFTGILSYIEQLVHHPQFSDSDVREMSKKRHKAAPSLTSMPVPPGETLNTDDICFSLQETIFAMLVEVTERAMSQIKTSDVLIVGGVGCNRRLQEMMQLMAAERGGRCFGMDQRYCIDNGCMIAYAGLLQYLSGSFTTMAEATVTQRFRTDEVYVTWRD result="not soluble"
sequence_record=NEDCNTIFGADFSHEGETPGLGAEITRSEFSGQFIGKEIFKEGEFRSVAVVKKGQKAEGKDYVDGISGGTLTSDGVNEMLISSLRPYALYLMNNVKK result="not soluble"

* * *

experiment: soluble on expression in E. coli; label from the status in PepcDB or PDB records
REPORTED METRIC: soluble on expression in E. coli

sequence_record=MGSDKIHHHHHHERHEFIIEVVGNAYLDDVMDWYQPSYGDYLVQAHPVIVLYYPDESYAYYERATFYEQYNDFVAAAGVIVDTADLKNDLGRIWNSYYPIYDVDVWWQADREEWQARVKGLTRDVNITTFFVVTFNGRDNYCEVVDIKDEGEIYLDNNGVYHLGPLSGVDGFAAFVQENPSRLTLESNTKILGAEVRWIK result="not soluble"
sequence_record=MPVKIPDHLPAAGILESENIFVMSETRAANQDIRPMKVLILNLMPNKIETETQLLRLLGNTPLQVDVDLLRIHDKESKHTSIDHMNTFYRDFEDVRHKNYDGLIITGAPLGQIDFEDVTYWDHIREIIDWSQQHVTSVLFLCWAAHAGLYHLYGLNRKILEQKRSGVFVHRRTCQHFPLLRGFDDEFFAPHSRFAEMDVEEIRQHPQLQLLAESDEAGAYLVLSRNNRNLFVMGHPEYQKSTLNDEYHRDLAQSLNPNVPQNYYRNDDPKADAIARWHSHGSLLVSNWLNYYVYQLTPYDLSDMTAMTPWESQMAGDPLEHHHHHH result=soluble
sequence_record=MIRSMTAYARREIKGEWGSATWEMRSVNQRYLETYFRLPEQFRSLEPVVRERIRSRLTRGKVECTLRYEPDVSAQGELILNEKLAKQLVTAANWVKMKSDEGEINPVDILRWPGVMAAQEQDLDAIAAEILAALDGTLDDFIVARETEGQALKALIEQRLEGVTAEVVKVRAHMPEILQWQRERLVAKLEDAQVQLENNRLEQELVLLAQRIDVAEELDRLEAHVKETYNILKKKEAVGRRLDFMMQEFNRESNTLASKSINAEVTNSAIELKVLIEQMREQIQNIE result="not soluble"
sequence_record=MRKIKIGLALGSGAARGWSHIGVINALKKVGIEIDIVAGCSIGSLVGAAYACDRLSALEDWVTSFSYWDVLRLMDLSWQRGGLLRGERVFNQYREIMPETEIENCSRRFAAVATNLSTGRELWFTEGDLHLAIRASCSIPGLMAPVAHNGYWLVDGAVVNPIPISLTRALGADIVIAVDLQHDAHLMQQDLLSFNVSEENSENGDSLPWHARLKERLGSITTRRAVTAPTATEIMTTSIQVLENRLKRNRMAGDPPDILIQPVCPQISTLDFHRAHAAIAAGQLAVERKMDELLPLVRTNI result="not soluble"
sequence_record=MSLEGEQHSRERDQQAIQYHYDVSNDFYKLWLDERMVYSCAYFPGGQETLDEAQTAKLDYICRKLQLRPGERLLDIGCGWGGLSLYAAQHYGVQVLGVTLSQAQLQEGQARVRVAGLEGQVQLELRDYRDVLSRGPAQFDKIASVGMAEHVGRRNMPEYFRSAYAALKPGGLMLNHAIGDGIGQARVPMWLQSGNFARKYVFPDGELLPVWETLKYASEQLFEVRDVENLREHYALTIGHWAARLEAHRPEALALLGEERLRLWRLYLGATSYYFRKGHLTLFQSLLAKPDAERAVPLPLSRAGLYREGHHHHHH result=soluble

Values compiled from the DeepSol protein solubility set.
